Kindly state viability for each of the entries shown.
# Assay Method Text: proliferation blockers of H69AR lung cancer cells, primary screen, cell-based, human, 86K library (AID 598);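 further: multidrug resistant small cell line overexpressing MRP-1 efflux transporter; 100% = mean luminescence of untreated control wells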
# Test Settings: H69AR lung tumor viability, ATP luminescence, 72 h; at 10 µM; active compounds read low
About 5,100 (6%) of roughly 85,000 compounds were called active. This is one part of a sample in which actives are shown more often than they occur.
One number for each entry, in %.

Worked set:
{"columns": ["Compound", "Unit Symbol", "viability"],
 "data": [
  ["CC(=O)c1cc2c(cc1NC(=O)CN1CCCCCC1)OCO2", "%", 79.5],
  ["CC(=O)c1sc(NC(=O)c2ccc(C)cc2)nc1C", "%", 80],
  ["O=C(CSc1nnc(-c2cccs2)n1-c1ccccc1)N1CCN(C(=O)c2ccco2)CC1", "%", 81.3]
]}

Read the next record carefully.
Name the recorded viability for O=C(NCC(=O)N(Cc1cccs1)C(C(=O)NC1CCCCC1)c1ccco1)c1cccs1 (centres undefined) .
82.2

---

# Assay Method Text: proliferation blockers of H69AR lung cancer cells, primary screen, cell-based, human, 86K library (AID 598);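 further: multidrug resistant small cell line overexpressing MRP-1 efflux transporter; 100% = mean luminescence of untreated control wells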
# Test Settings: H69AR lung tumor viability, ATP luminescence, 72 h; at 10 µM; active compounds read low
About 5,100 (6%) of roughly 85,000 compounds were called active. Only a selection was taken, and actives are over-represented in it overall.
Please respond with reported viability for every item in the list.
Give bare numbers, in %.

{"columns": ["Compound", "Unit Symbol", "viability"],
 "data": [
  ["COc1ccc(C(C#N)Nc2ccccc2C)cc1 (centres undefined)", "%", 88.9]
]}

Return reported viability values for all items listed beneath this line.
1. Cc1cc(C)c2nc(N3CCCC3)c(C#N)cc2c1
2. O=C(NC(C(=O)NCCN1CCOCC1)C12CC3CC(CC(C3)C1)C2)C1CCCCC1 (centres undefined)
3. C=C(C)CSc1nc(N)c2c3c(sc2n1)CCC3

1: 91.6; 2: 90.9; 3: 92.1

---

# Assay Method Text: proliferation blockers of H69AR lung cancer cells, primary screen, cell-based, human, 86K library (AID 598);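 further: multidrug resistant small cell line overexpressing MRP-1 efflux transporter; 100% = mean luminescence of untreated control wells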
# Test Settings: H69AR lung tumor viability, ATP luminescence, 72 h; at 10 µM; active compounds read low
Hit rate of the full screen: of about 85,000 compounds, about 5,100 (6%) were called active. Only a selection was taken, and actives are over-represented in it overall.
Answer each item with its documented viability.
Answers are plain numbers, in %.

{"columns": ["Compound", "Numeric Readout"],
 "data": [
  ["Cc1cccc(NC(=O)c2sc3nc4c(c(-c5ccco5)c3c2N)CCC4)c1", 78.6],
  ["COCCOC(=O)C1=C(C)N=c2s/c(=C\\c3cccs3)c(=O)n2C1c1cccs1 (stereo unspecified)", 80.7],
  ["OC(C#CCN1CCOCC1)(c1ccccc1)C1CCCCC1 (stereo unspecified)", 79.2],
  ["CCOC(=O)C1CCCN(C(=O)CN(c2ccc(OC)cc2)S(=O)(=O)c2c(C)noc2C)C1 (stereo unspecified)", 78.5]
]}

// input: 2 compounds below; output: viability for each
1. CCCC1(C(=O)OCC)NC(c2ccc(N(C)C)cc2)C2C(=O)N(c3ccc4c(c3)OCCO4)C(=O)C21 (stereo unspecified)
2. Cc1cc(O)cc(O)c1C(=O)Cc1cnn(-c2ccccc2)c1

80
79.8
